Target: PD-L1 ligand (analyte of the Octet affinity measurement) (UniProt Q9NZQ7 19-238, limits assumed)
Sequence (Q9NZQ7 19-238 limits assumed): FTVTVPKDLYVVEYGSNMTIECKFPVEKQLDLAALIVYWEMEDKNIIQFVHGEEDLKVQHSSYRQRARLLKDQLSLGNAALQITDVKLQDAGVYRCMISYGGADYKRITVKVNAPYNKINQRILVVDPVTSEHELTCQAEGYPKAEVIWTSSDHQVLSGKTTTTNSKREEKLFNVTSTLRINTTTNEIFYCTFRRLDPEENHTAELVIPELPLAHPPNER
Assay: BLI (Octet RED 96), antibody captured on anti-human IgG sensor, PD-L1 in solution, 1:1 fit

Binder: chimeric anti-PD-L1 antibody 116F3 (antibody, V domains shown) VH: CQSVKESEGGLFKPTDTLTLTCTVSGIDLSSISIGWVRQAPGNGLEWIGTISDSGSAYYASWAKSRSTITRNTNENTVTLKMTSLTAADTASYFCAKEILYYGMDLWGPGTLVTVSS VL: DVVMTQTPASVSGAVGGTVTIKCQASEDIESYLAWYQQKPGQPPKLLIYAASNLEPGVPSRFKGSRSGTEYTLTITDLECDDAATYHCQATYGSTSSSDYGNAFGGGTKVVVVR
Comparison Operator: <
koff (s⁻¹): 1e-07
--
Binder: chimeric anti-PD-L1 antibody 113F1 (antibody, V domains shown) VH: CQSVKESEGGLFKPTDTLTLTCTVSGIDLSSIAISWVRQAPGNGLEWIGTINSYGSTYYASWAQSRSTITRNTNENTVTLKMTSLTAADTASYFCAKEILYYGMDVWGPGTLVTVSS VL: DVVMTQTPASVEAAVGGTVTIKCQASQSISSYLAWYQQKPGQPPKLLIYAASNLESGVPSRFKGSGSGTEYTLTISDLECDDAATYYCQSTYGTTSTSDYGNAFGGGTKVVVVR
Comparison Operator: =
koff (s⁻¹): 3.78e-05
--
Binder: chimeric anti-PD-L1 antibody 115C1 (antibody, V domains shown) VH: CQSVKESEGGLFKPTDTLTLTCTVSGFSLSSVAVSWVRQAPGKGLEWIGTISYTGNTYYASWAKSRSTITRNTNENTVTLKMPSLTVADTATYFCAKEILYYGMDFWGPGTLVTVSS VL: DIVMTQTPSSVSAAVGGTVTINCQASQSISSYLAWYQQKPGQPPKLLIYGASNLESGVPSRFKGSGSGTDFTLTISDLECADAATYYCQSTYGSTSTSDYGNAFGGGTKVVVVR
Comparison Operator: =
koff (s⁻¹): 2.08e-05
